# System: SF-295 CNS
# PROCEDURE DETAILS: NCI tumour cell line growth inhibition, 48 h
RECORDED ENDPOINT: TGI (µM)

COMPOUND | RELATION QUALIFIER | VALUE OBSERVED
C/C=C/C=C/C=C/C=C/C(=O)O | > | 100
COc1ccc(/C=c2\s/c(=C3/SC(=S)N(c4ccccc4)C3=O)n(-c3ccccc3)c2=O)cc1 | > | 100
CCn1c2ccc(C(=O)CCCN3CCCCC3)cc2c2cc(C(=O)CCCN3CCCCC3)ccc21 | = | 10.7
COc1ccccc1C1Nn2c(nc3ccccc3c2=O)N1c1ccc(C)cc1 (stereo not given) | = | 17.8
COc1ccc2c(c1)/C(=C\c1c(Cl)[nH]c3ccc(OC)cc13)C(=O)N2 | = | 45.8

* * *

# System: NCI-H226 lung
# PROCEDURE DETAILS: NCI tumour cell line growth inhibition, 48 h
TGI by entry:
RECORDED ENDPOINT: TGI

COMPOUND | EXPERIMENTAL TARGET | VALUE OBSERVED
COc1cc(C(=O)Oc2ccc3c(c2)OCO3)cc(OC)c1OC | NCI-H226 lung | > 100 µM
CCOc1ccc(Nc2nc(N)nc(N)c2N)cc1 | NCI-H226 lung | > 100 µM
O=C1C(c2ccccc2)=[N+]([O-])c2ccccc21 | NCI-H226 lung | 37.8 µM
O=[N+]([O-])c1cnn(C2=CNc3ccccc3N=C2)c1 | NCI-H226 lung | > 100 µM
N#C/C(=C/n1c(=S)[nH]c2ccc([N+](=O)[O-])cc21)C(N)=O | NCI-H226 lung | > 100 µM
CSc1nc(NC(C)C)c2c(n1)Sc1nc3ccccc3n1N=C2 | NCI-H226 lung | > 100 µM
CCC[n+]1cc2cc(OC)c(OC)cc2c2c1-c1cc3c(cc1C2)OCO3 | NCI-H226 lung | 8.13 µM
O=P(O)(O)c1ccccc1Oc1ccccc1 | NCI-H226 lung | > 100 µM
COC(=O)C(=O)C(C(=O)C(=O)Nc1cccc(C(C)=O)c1)c1nc2ccccc2[nH]c1=O (stereo unspecified) | NCI-H226 lung | > 100 µM
Cn1c(=O)c2c(nc3n(Cc4ccccc4)c(=O)c(NCCCBr)cn23)n(C)c1=O | NCI-H226 lung | > 100 µM
CCOP(=O)(OCC)OC(C#N)c1ccc(-c2ccccc2)cc1 (stereo unspecified) | NCI-H226 lung | > 100 µM

* * *

# Tested on: MALME-3M melanoma
# PROCEDURE DETAILS: NCI tumour cell line growth inhibition, 48 h
TGI by entry:

COMPOUND | TGI
O=C(O)c1ccc2c(c1)CCCC(c1ccc(Cl)cc1Cl)=C2c1ccc(O[C@H]2CCN(CCCF)C2)cc1 | 35.4 µM
COc1ccc(OC2OC(CO)C(OCc3ccccc3)C(OCc3ccccc3)C2OCc2ccccc2)cc1 (stereo not given) | > 100 µM
Cc1ccccc1C1=C(C(=O)Nc2ccc(Cl)c(Cl)c2)NC(=S)NC1N (stereo not given) | > 100 µM
C/C(CCc1ccccc1)=N\NC(N)=S | > 100 µM
O=C(O)c1cccc2cccc(-c3cccc4cccc(C(=O)O)c34)c12 | > 100 µM

* * *

# Tested on: KM12 colon
# PROCEDURE DETAILS: NCI tumour cell line growth inhibition, 48 h
RECORDED ENDPOINT: TGI

COMPOUND | RECORDED ENDPOINT | VALUE OBSERVED
O=C(O)c1ccc2c(c1)CCCC(c1ccc(Cl)cc1Cl)=C2c1ccc(O[C@H]2CCN(CCCF)C2)cc1 | TGI | 20.3 µM
Cc1cc2c(cc1C)N(C(=O)CCl)CCN2C(=O)CCl | TGI | 3.31 µM
O=C(c1ccncc1)n1nc(-c2ccccc2)c(N=Nc2ccccc2[N+](=O)[O-])c1-c1ccccc1 | TGI | > 100 µM
CC1(C)OCC2OC3([C@@H]4OC(C)(C)O[C@H]4CO)OC(C)(C)OC3C2O1 (stereo not given in full) | TGI | > 100 µM
O=C(O)C1CCCCC1C(=O)O.[NH-]C1CCC1.[NH2-].[Pt+2] (stereo not given) | TGI | > 100 µM
COC(=O)C1CCc2sc3ncnc(Nc4cn[nH]c4C(=O)Nc4ccc(CN5CCN(C)CC5)cc4)c3c21 (stereo not given) | TGI | 2.63 µM
NC(N)=NCCC1OC(=O)C2=C1c1c(O)ccc3nccc(c13)O2 (stereo not given) | TGI | > 100 µM
O=C(/C=C/C(=O)N1CCCC1)N1CCCC1 | TGI | > 100 µM
CN(C)CCCNC(=O)c1ccc2c(c1)oc1cc3ccccc3c(=O)n12 | TGI | > 50 µM
O=C(O)c1cccc2cccc(-c3cccc4cccc(C(=O)O)c34)c12 | TGI | > 100 µM

* * *

# Test system: SK-MEL-5 melanoma
# PROCEDURE DETAILS: NCI tumour cell line growth inhibition, 48 h
RECORDED ENDPOINT: log10 of TGI (log10 of the value in µM)

COMPOUND | log10 of TGI
COc1ccccc1C1Nn2c(nc3ccccc3c2=O)N1c1ccc(C)cc1 (stereo not given) | 1.35
Cc1cc2c(cc1C)N(C(=O)CCl)CCN2C(=O)CCl | 0.29
C=C1C(=O)O[C@H]2[C@H]1CC/C(COC(=O)c1cc3cc(Cl)ccc3[nH]1)=C\CC[C@@]1(C)O[C@@H]21 | 0.55
Cc1cc(C)c2c(=O)cc(-c3cccc(F)c3)[nH]c2n1 | 0.80
CCOP(=O)(OCC)OC(C#N)c1ccc(-c2ccccc2)cc1 (stereo not given) | 1.50

* * *

# System: 786-0 renal
# PROCEDURE DETAILS: NCI tumour cell line growth inhibition, 48 h
Rule: Condition met for TGI not less than 30 µM, Condition not met for anything less.

COMPOUND | EXPERIMENTAL TARGET | LABEL CLASS
CCOC(=O)/C=C/C1=C(c2cccs2)c2ccccc2CC1 | 786-0 renal | Condition met
CCC[n+]1cc2cc(OC)c(OC)cc2c2c1-c1cc3c(cc1C2)OCO3 | 786-0 renal | Condition not met
COC(=O)c1nc(Cl)nc(Cl)c1Cl | 786-0 renal | Condition met
O=C1NC(=S)S/C1=C(/C=C(\CC(=O)c1ccccc1)c1ccc(Cl)cc1)c1ccccc1 | 786-0 renal | Condition met
Cc1cc(C)c(C(=O)c2no[n+]([O-])c2C(=O)c2c(C)cc(C)c(Br)c2C)c(C)c1Br | 786-0 renal | Condition met
CC(C)c1cccc(C(C)C)c1NC(=O)/C(CC(=O)CC(c1ccccc1)c1c(O)c2ccccc2oc1=O)=N/O (centres undefined) | 786-0 renal | Condition met
Cc1ccc2c(c1)-c1c(C#N)c(N)nc(-c3ccc(Cl)cc3)c1CCS2(=O)=O | 786-0 renal | Condition met
Cc1cc(Cl)ccc1Nc1nc(C(F)(F)F)ccc1C(=O)N/N=C/c1ccc([N+](=O)[O-])cc1 | 786-0 renal | Condition met
Fc1cc2[nH]ncc2c2c3c(c(-c4cn[nH]c4C(F)(F)F)nc12)C1CCC3C1 (centres undefined) | 786-0 renal | Condition not met
Cc1ccc(-c2csc(NC(=O)CN3CCN(c4cc5c(cc4F)c(=O)c(C(=O)O)cn5C4CC4)CC3)n2)cc1 | 786-0 renal | Condition not met
CS(=O)(=O)Nc1ccc2c(c1)N(S(C)(=O)=O)CC2CCl (centres undefined) | 786-0 renal | Condition met
Nc1ccccc1C#C/C=C\C#Cc1ccccc1 | 786-0 renal | Condition met
Cc1cc2c(cc1C)N(C(=O)CCl)CCN2C(=O)CCl | 786-0 renal | Condition not met
Cc1c(C(=O)NCCN2CCOCC2)cn2ncnc(Oc3ccc(NC(=O)Nc4ccc(Cl)c(C(F)(F)F)c4)cc3)c12 | 786-0 renal | Condition not met
C=C1C(OC2O[C@@H]3O[C@@]4(C)CC[C@H]5[C@H](C)CC[C@@H](C2=C)[C@@]35O4)O[C@@H]2O[C@@]3(C)CC[C@H]4[C@H](C)CC[C@@H]1[C@@]24O3 (some centres undefined) | 786-0 renal | Condition met
COC(=O)[C@]12CCC(C)[C@H](C)[C@H]1C1=CCC3[C@@]4(C)CC[C@H](OC(C)=O)C(C)(C)C4CC[C@@]3(C)C1(C)C(O)C2 (some centres undefined) | 786-0 renal | Condition met
COc1ccc(/C=C2\CCCC(C(NO)c3ccc(OC)cc3)C2=NO)cc1 (centres undefined) | 786-0 renal | Condition met
CCCCSc1nsc(N(C(=O)c2ccccc2)C(=O)c2ccccc2)n1 | 786-0 renal | Condition met
CN1CC[C@]2(C)c3ccc(O)cc3CC3CCCC1C32C (some centres undefined) | 786-0 renal | Condition met

* * *

# Test system: EKVX NSCLC
# PROCEDURE DETAILS: NCI tumour cell line growth inhibition, 48 h
GI50 by entry:

COMPOUND | GI50
N.N.N.N.O=C([O-])C(Cl)Cl.O=C([O-])C(Cl)Cl.[Co+3].[O-][Cl+3]([O-])([O-])[O-] | > 100000 nM
C=C1C(=O)O[C@H]2[C@H]1CC/C(COC(=O)c1cc3cc(Cl)ccc3[nH]1)=C\CC[C@@]1(C)O[C@@H]21 | 1400 nM
COc1cc2c(=O)n(CCN)c3c4cc5c(cc4ccc3c2cc1OC)OCO5 | 1470 nM
Cc1cc(S(=O)(=O)NC#N)c(S/C(=N\Nc2ccc([N+](=O)[O-])cc2)c2ccc(Cl)cc2)cc1Cl | 20200 nM
Cn1c2c(c3ccc(Cl)c(Cl)c31)C(C#N)C1(CCNCC1)NC2=O (stereo not drawn) | 2470 nM
Cc1cc(Cl)ccc1Nc1nc(C(F)(F)F)ccc1C(=O)N/N=C/c1ccc([N+](=O)[O-])cc1 | 2370 nM
COC(=O)C1CCc2sc3ncnc(Nc4cn[nH]c4C(=O)Nc4ccc(CN5CCN(C)CC5)cc4)c3c21 (stereo not drawn) | 838 nM
O=C1NC(=S)S/C1=C(/C=C(\CC(=O)c1ccccc1)c1ccc(Cl)cc1)c1ccccc1 | 33600 nM
COc1cc(/C=C2\C(=O)Nc3ccc(N(C)C)cc32)cc(OC)c1OC | 5250 nM
COc1cc(-c2cn(-c3ccc(Cl)c(Cl)c3)c(=O)n2C(C)=O)cc(OC)c1OC | 2600 nM
CC[PH+](CC)CC.O=COC1OC([S-])C(OC=O)C(OC=O)C1OC=O.[Au+] (stereo not drawn) | 1740 nM
Cc1ccc(-c2csc(NC(=O)CN3CCN(c4cc5c(cc4F)c(=O)c(C(=O)O)cn5C4CC4)CC3)n2)cc1 | 1530 nM
Fc1cc2[nH]ncc2c2c3c(c(-c4cn[nH]c4C(F)(F)F)nc12)C1CCC3C1 (stereo not drawn) | 1390 nM

Just for reference, PubChem BioAssay (NCI) is where these values come from.
